Tested on: Enterococcus faecalis
Assay: Antimicrobial activity against vancomycin-sensitive Enterococcus faecalis ATCC 19433 by CLSI protocol based broth microdilution method
Type: functional
Reported values of MIC for individual entries
result_type: MIC (µg/mL)

* COc1cc2c(ccc3c4ccc(OC)c(OC)c4c[n+](C)c23)c(C2CCCCC2)c1OC.[Cl-] | 8
* C[n+]1cc2c3c(ccc2c2ccc4cc5c(cc4c21)OCO5)OCO3.[Cl-] [SANGUINARIUM CHLORIDE] | 8
* C=Cc1c(OC)c(OC)cc2c1ccc1c3ccc(OC)c(OC)c3c[n+](C)c21.[Cl-] | 8
